I'd appreciate it if you could supply IC50 values for the items below.
assay.system: Human-Dab2-DH (Homo sapiens, UniProt P98082)
Construct: fused on or other part: N-terminal 10xHis tag with a 3C protease site, cleaved off unless otherwise indicated
Sequence (P98082 33-178 limits assumed): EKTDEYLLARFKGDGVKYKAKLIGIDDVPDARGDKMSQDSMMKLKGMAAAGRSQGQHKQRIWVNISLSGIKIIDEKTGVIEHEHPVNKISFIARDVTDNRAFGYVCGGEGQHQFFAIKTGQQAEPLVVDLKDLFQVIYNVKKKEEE
run.description: Dab2 FP competition assay via HTS
Type: binding
experimental.context: read-out: Inhibitory activity Dab2 IC50
Your reply should be a number followed by the unit it is expressed in.

Batch request: IC50 per item, same order as input.
1. CC(C)c1cc2c(c(O)c1O)C13CCCC(C)(C)C1CC2OC3=O (centres unmarked) [Example 16]
2. O=C(/C=C/c1ccc(O)c(O)c1)OC(Cc1ccc(O)c(O)c1)C(=O)O (centres unmarked) [Example 25]

OUTPUT:
6890 nM
3220 nM

Batch request: IC50 per item, same order as input.
1. O=C1c2c(O)c(Cl)cc3c2[C@@]2(Oc4ccc(O)c5c4[C@]3(O2)[C@@H]2O[C@@H]2C5=O)[C@@H]2O[C@H]12 [Example 34]
2. Cc1cc(O)c(O)c(Oc2cc(C)cc(O)c2O)c1 [Example 22, 6,6′-oxybis(4-methylbenzene-1,2-diol)]

OUTPUT:
1: 2990 nM; 2: 770 nM

Batch request: IC50 per item, same order as input.
1. O=C1c2c(O)c(Cl)cc3c2[C@@]2(Oc4cc(Cl)c(O)c5c4[C@]3(O2)[C@@H]2O[C@@H]2C5=O)[C@@H]2O[C@H]12 [Example 3]
2. CC1COC2C3=C(C(=O)C=CC3=O)C3OC(=O)C4CCC5C1CCC25C43 (centres unmarked) [Example 2]
3. Oc1ccc(N2CCN(c3ncccn3)CC2)cc1 [Example 5]
4. COC(=O)C1=COC(OC2OC(CO)C(O)C(O)C2O)C2C(CO)=CCC12O (centres unmarked) [Example 28]

OUTPUT:
1. 260 nM
2. 220 nM
3. 20600 nM
4. 390 nM

###

I'd appreciate it if you could supply pIC50 values for the items below.
assay.system: Human-Dab2-DH (Homo sapiens, UniProt P98082)
Construct: fused on or other part: N-terminal 10xHis tag with a 3C protease site, cleaved off unless otherwise indicated
run.description: Dab2 FP competition assay via HTS
Assay type: binding
experimental.context: read-out: Inhibitory activity Dab2 IC50
Numbers only, as −log10 of the molar value.

Cc1cc(O)c(Oc2cc(C)cc(O)c2O)c(O)c1 = 6.05
CC(C)c1cc2c(c(O)c1O)[C@@]13CCCC(C)(C)[C@@H]1C[C@@H]2OC3=O = 5.27
C=C1C(=O)OC2C(=O)OC(CCCCCCCCCC)C12 (stereo not shown) = 5.28

Form field pIC50, entry CC1=C(O)C(=O)C=C2C1=CC=C1[C@@]2(C)CC[C@@]2(C)[C@@H]3C[C@](C)(C(=O)O)CC[C@]3(C)CC[C@]12C : 6.18

###

assay.system: CAL PDZ (Homo sapiens, UniProt Q9HD26)
Construct: Recombinant CAL PDZ was expressed and purified in E. coli as previously described
run.description: CALP fluorescence polarization (FP) competition assay, HTS format with dose-response validation
experimental.context: read-out: Inhibitory activity CALP IC50
attribute.measured: log10 IC50 (log10 of the value in µM)
The base-10 logarithm of IC50, taken with IC50 in µM, is what appears here.

O=C(O[C@@H]1Cc2c(O)cc(O)cc2O[C@@H]1c1cc(=O)c(O)c2c(O)c(O)cc([C@H]3Oc4cc(O)cc(O)c4C[C@H]3O)c2c1)c1cc(O)c(O)c(O)c1 = 1.05
O=c1[nH]c2ccc(S(=O)(=O)Nc3ccc(O)c4ccccc34)cc2[nH]1 = 0.66
COc1cc(O)c2c(c1)oc(=O)c1c3cc(O)c(O)cc3oc21 = 0.09
Cc1c(O)c(O)c(O)c(C=O)c1C=O [Example 4, 3,4,5-trihydroxy-6-methylphthalaldehyde] = 1.01
Oc1ccc(N2CCN(c3ncccn3)CC2)cc1 = 1.61
O=C1c2c(O)c(Cl)cc3c2[C@@]2(Oc4cc(Cl)c(O)c5c4[C@]3(O2)[C@@H]2O[C@@H]2C5=O)[C@@H]2O[C@H]12 = 1.40

Batch request: log10 IC50 per item, same order as input.
1. CC1COC2C3=C(C(=O)C=CC3=O)C3OC(=O)C4CCC5C1CCC25C43 (stereo not drawn)
2. C/C1=C/CC(O)/C=C\C(C)C(O)C(C)/C=C(\C)C(=O)c2c(O)c(C)cc3c2C(=O)C(Cl)=C(NC(=O)/C=C/C=C/C=C/C(C)C(O)CC1=O)C3=O (stereo not drawn)
3. CC[C@@]1(O)C[C@H](O[C@H]2C[C@H](N(C)C)[C@H](O)[C@H](C)O2)c2c(cc3c(c2O)C(=O)c2c(O)ccc(O)c2C3=O)[C@H]1C(=O)OC

OUTPUT:
1: 0.11; 2: 0.67; 3: -0.14

###

assay.system: Human-Dab2-DH (Homo sapiens, UniProt P98082)
Construct: fused on or other part: N-terminal 10xHis tag with a 3C protease site, cleaved off unless otherwise indicated
run.description: Dab2 FP competition assay via HTS
Assay type: binding
attribute.measured: IC50 (nM)
Answers are plain numbers, in nM.

CN(C)[C@@H]1C(=O)C(C(N)=O)=C(O)[C@@]2(O)C(=O)C3=C(O)c4c(O)cccc4[C@@](C)(O)[C@H]3[C@H](O)[C@@H]12 = 6020

Batch request: IC50 per item, same order as input.
1. COc1c(O)c2c(=O)cc(OC)c3c4c(OC)cc(=O)c5c(O)c(OC)c(CC(C)OC(=O)c6ccccc6)c(c(c1CC(C)OC(=O)Oc1ccc(O)cc1)c23)c54 (stereo not drawn)
2. COc1cc(O)c(C(=O)O)c(-c2cc(O)c(O)cc2C)c1

OUTPUT:
1. 510
2. 37

###

I'd appreciate it if you could supply pIC50 values for the items below.
assay.system: Human-Dab2-DH (Homo sapiens, UniProt P98082)
Construct: fused on or other part: N-terminal 10xHis tag with a 3C protease site, cleaved off unless otherwise indicated
Sequence (P98082 33-178 limits assumed): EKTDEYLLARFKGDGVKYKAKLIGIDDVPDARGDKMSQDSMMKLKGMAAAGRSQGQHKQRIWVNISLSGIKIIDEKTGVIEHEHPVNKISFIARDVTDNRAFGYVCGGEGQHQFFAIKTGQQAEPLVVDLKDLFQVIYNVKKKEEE
run.description: Dab2 FP competition assay via HTS
Assay type: binding
experimental.context: read-out: Inhibitory activity Dab2 IC50
One number for each entry, as −log10 of the molar value.

CC1OC2CC(=O)OC2C2=C1C(=O)c1c(O)cccc1C2=O (centres unmarked) = 5.10
CC[N+](C)(CC)CCC[n+]1c(-c2ccccc2)c2cc(N)ccc2c2ccc(N)cc21 = 5.03
COC1=CC(=O)C(O)=C/C1=C\C=C\c1ccccc1 = 5.11

Batch request: pIC50 per item, same order as input.
1. Cc1c(O)c(O)c(O)c(C=O)c1C=O [Example 4, 3,4,5-trihydroxy-6-methylphthalaldehyde]
2. COc1c(O)cc(C(C)C(C)=O)c(O)c1OC (centres unmarked)
3. O=C(O[C@@H]1Cc2c(O)cc(O)cc2O[C@@H]1c1cc(=O)c(O)c2c(O)c(O)cc([C@H]3Oc4cc(O)cc(O)c4C[C@H]3O)c2c1)c1cc(O)c(O)c(O)c1
4. CC(=O)C1=C(O)[C@@]2(O)C(=O)c3c(c(C)c4ccc(C)c(O)c4c3O)C[C@H]2[C@@H](N)C1=O
5. COc1ccc(C(=O)C(=O)Nc2ccccc2)c(O)c1
6. Cc1occ2c1C(=O)c1c(O)ccc(O)c1C2

OUTPUT:
5.47
5.93
5.61
5.05
6.03
6.16

Batch request: pIC50 per item, same order as input.
1. CC1CCCCCCCCCC(OC(=O)CCC(=O)O)C(=O)/C=C/C(=O)O1 (centres unmarked)
2. O=C1C=C(O)c2c(O)cc(O)cc2C1=O [Example 17, 4,5,7-trihydroxynaphthalene-1,2-dione]

OUTPUT:
1. 5.41
2. 5.08

###

assay.system: Dab2-DH (Homo sapiens)
Construct: Human-Dab2-DH, residues 31-191 (Uniprot: P98082); 10xHis (3C protease site) (N, cleaved yes); made in house; host or cells: E. coli BL21(DE3)RIL
run.description: Dab2-DH FP competitive displacement experiments (F*-STA02 reporter)
Format: binding
experimental.context: text b140
attribute.measured: Ki (nM)
Answers are plain numbers, in nM.

Entry CN1CCc2cccc3c2[C@@H]1Cc1ccc(O)c(O)c1-3.Cl [Example 12, hydrochloride] , Dab2-DH (Homo sapiens) data, Ki value: 1610
